# Tested on: HCT-116 colon
# measurement_description: NCI tumour cell line growth inhibition, 48 h
Each entry below carries its reported TGI.
Quick note: give the figure in µM, leave out the unit.

given_smiles	target_of_assay	measurement_label	readout_number
CCN(CC)CCOc1ccccc1-n1c(C)ccc1-c1ccccc1	HCT-116 colon	TGI	25.8

Look up and state reported TGI for CC(=O)OCCC/C(=C/c1cc2ccccc2c2ccccc12)[N+](=O)[O-]
2.8

---

# System: MDA-MB-231 breast
# measurement_description: NCI tumour cell line growth inhibition, 48 h
measurement_label: TGI (µM)
Please reply with the bare figure in µM and do not write the unit itself.

compound	TGI [µM]
O=C1CCCc2cc3c(cc21)CC1(C3)Cc2cc3c(cc2C1)C(=O)CCC3	21.6
CC12OC(C(=O)C13CCC3)C1C(=O)c3c(O)ccc(O)c3C(=O)C12 (stereo not drawn)	7.47
CN(C)c1ccc(/C=C2\C[C@H]3[C@@H]4CC=C5C[C@@H](O)CC[C@]5(C)[C@H]4CC[C@]3(C)[C@H]2O)cc1	34.5
CCN1C(=O)N[C@H]2[C@@H]3NC(=O)c4ccc(Cl)n4[C@@H]3C[C@]21O	7.25
C=C(C)[C@@H]1CC[C@]2(COC(=O)c3ccccc3C(=O)O)CC[C@]3(C)[C@H](CC[C@@H]4[C@@]5(C)CC[C@H](OC(=O)c6ccccc6C(=O)O)C(C)(C)[C@@H]5CC[C@]43C)[C@@H]12	69.3

Supply reported TGI belonging to this compound: NCCNc1nc2ccc(F)cc2c2c(=O)c3cc(F)ccc3sc12
3.08

Tell us which TGI value is on record for CC(=O)O[C@H]1C(=O)[C@@]2(C)[C@H]([C@H](OC(=O)c3ccccc3)[C@]3(O)C[C@H](OC(=O)[C@H](O)[C@@H](NC(=O)C(C)(O)C(C)O)c4ccccc4)C(C)=C1C3(C)C)[C@]1(OC(C)=O)CO[C@@H]1C[C@@H]2O (stereo partly drawn)
43.1

# return recorded TGI for input COc1ccc(OC)c(-c2nc3sc(C)cn3c2/C=C2\C(=O)N(C)c3ccccc32)c1
66.3

---

Here, each record is paired with measured TGI data.
# System: M14 melanoma
# measurement_description: NCI tumour cell line growth inhibition, 48 h
Lab book: enter the figure in µM, no units written.

compound	TGI, µM
CC(C)C(=O)/C=C/c1ccc(Cl)cc1Cl	20

Look up and report TGI, with M14 melanoma as system, for CN(C)c1ccc(/C=C2\C[C@H]3[C@@H]4CC=C5C[C@@H](O)CC[C@]5(C)[C@H]4CC[C@]3(C)[C@H]2O)cc1
41.3

Please look at Cc1nc2sc(C(=O)Nc3cccc(Cl)c3C)c(N)c2cc1C(O)c1ccccc1 (stereo not given) and tell me its recorded TGI on M14 melanoma.
13.1

With M14 melanoma as the test system, provide measured TGI for this compound: COc1ccc(/C=N/C2=NNC(C)(c3ccccc3O)N2C(Cc2c[nH]c3ccccc23)C(=O)O)cc1 (stereo not given)
8.77

Under M14 melanoma, report TGI for O=C(NN1CCCCC1)c1cc2cc(CCl)ccc2oc1=O
49.4

Quote M14 melanoma TGI for entry COc1ccc(OC)c(-c2nc3sc(C)cn3c2/C=C2\C(=O)N(C)c3ccccc32)c1 .
80.3

---

// values below are reported GI50
# Tested on: OVCAR-8 ovarian
# measurement_description: NCI tumour cell line growth inhibition, 48 h

given_smiles	result
Fc1cccc(-c2nc(-c3c[nH]c4ncccc34)cs2)c1	42.4 µM
COc1cc2c3c(n(CCCN=[N+]=[N-])c(=O)c2cc1OC)-c1ccc(NC(C)=O)cc1C3=O	> 50 µM
CC(=O)OCCC/C(=C/c1cc2ccccc2c2ccccc12)[N+](=O)[O-]	1.61 µM
COc1ccc(OC)c(-c2nc3sc(C)cn3c2/C=C2\C(=O)N(C)c3ccccc32)c1	28.3 µM

Moving on to another compound below.
Quick one: give measured GI50 for Clc1ccc2c(NCCNc3nc(N4CCCCC4)nc4ccccc34)ccnc2c1
2.17 µM
